All values here come from patent US7759367B2.

System: AMPA receptor
STATED_CONDITIONS: primary culture of rat embryo cerebral cortex nerve cells; Fura2-AM; 2 μM AMPA; 1 μM MK-801
Hi there, I'd appreciate the recorded pIC50 for every entry that follows.
One number for each entry, as −log10 of the molar value.

In the examples that follow, each entry is paired with its recorded pIC50.
COc1cncc(-n2cc(-c3ccccn3)cc(-c3ccccc3C#N)c2=O)c1 [Example 118] = 7.00
CSc1ccc(-n2cc(-c3ccccn3)cc(-c3ccccc3C#N)c2=O)cc1 [Example 26] = 7.70
CS(=O)(=O)Nc1cccc(-n2cc(-c3ccccn3)cc(-c3ccccc3C#N)c2=O)c1 [Example 10] = 7.30

In the following, a different compound is considered.
Lookup result for N#Cc1ccccc1-c1cc(-c2ccccn2)cn(-c2ccc(C(F)(F)F)cc2)c1=O [Example 108] ; measured pIC50: 7.52

* * *

Tested on: AMPA receptor
STATED_CONDITIONS: primary culture of rat embryo cerebral cortex nerve cells; Fura2-AM; 2 μM AMPA; 1 μM MK-801
OBSERVATION_TYPE: IC50 (nM)
Numbers only, in nM.

Example entries begin here.
COc1cccc(-n2cc(-c3ccccn3)cc(-c3ccccc3C#N)c2=O)c1 = 60
CN(C)c1cccc(-n2cc(-c3ccccn3)cc(-c3ccccc3C#N)c2=O)c1 = 100
N#Cc1ccccc1-c1cc(-c2ccccn2)cn(-c2ccc(F)cc2)c1=O = 50
N#Cc1ccccc1-c1cc(-c2ccccn2)c(=O)n(-c2ccccc2)c1 = 700

So for N#Cc1cccnc1-c1cc(-c2ccccn2)cn(-c2ccccc2)c1=O , the logged IC50 turned out to be 1400

* * *

System: AMPA receptor
STATED_CONDITIONS: primary culture of rat embryo cerebral cortex nerve cells; Fura2-AM; 2 μM AMPA; 1 μM MK-801
pIC50: −log10 of the molar value.
Values of pIC50 greater than or equal to 7 map to Satisfied; values below map to Not satisfied.

Look over these answered cases.
COc1ccc(-n2cc(-c3ccccn3)cc(-c3cccnc3F)c2=O)cn1 = Not satisfied
N#Cc1cccnc1-c1cc(-c2ccccc2)cn(-c2cccnc2)c1=O = Not satisfied
N#Cc1ccccc1-c1cc(-c2ccccn2)cn(-c2cccc(N)c2)c1=O = Satisfied
CS(=O)(=O)c1ccc(-n2cc(-c3ccccn3)cc(-c3ccccc3C#N)c2=O)cc1 = Satisfied
CNC(=O)c1cccc(-n2cc(-c3ccccn3)cc(-c3ccccc3C#N)c2=O)c1 = Satisfied

Q) Evaluate Cc1cccc(-n2cc(-c3ccccn3)cc(-c3ccccc3C#N)c2=O)c1 : pIC50 at minimum 7?
A) Satisfied

Q) Would you say N#Cc1ccccc1-c1cc(-c2ccccn2)cn(-c2cccc(C=O)c2)c1=O shows pIC50 at minimum 7?
A) Satisfied

* * *

Tested on: AMPA receptor;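 further: neurons cultured at least 8 to 10 days atop an astrocyte layer in 96-well plates, calcium entry read as the change in Fura2 fluorescence ratio at 340/380 nm excitation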
STATED_CONDITIONS: primary culture of rat embryo cerebral cortex nerve cells; Fura2-AM; 2 μM AMPA; 1 μM MK-801
Simple rule here: IC50 less than 100 nM is T, otherwise F.

COc1ccc(-c2cc(-c3ccccn3)cn(-c3ccccc3)c2=O)cn1 = T

Q) Please determine if COc1ccc(-n2cc(-c3ccccn3)cc(-c3ccccc3C#N)c2=O)cn1 is below 100 nM in terms of IC50.
A) T

Q) IC50 strictly < 100 nM for this compound? Cc1ccc(-n2cc(-c3ccccn3)cc(-c3ccccc3C#N)c2=O)cc1
A) T

Q) Say whether its IC50 is strictly beneath 100 nM. Entry: O=c1c(-c2ccc(Cl)cc2Cl)cc(-c2ccccn2)cn1-c1cccnc1
A) F
